The origin of these recorded values is the RNAGym collection of RNA variant scans (doi:10.7554/elife.80360).

B1: HDV Ribozyme (parent)
chain: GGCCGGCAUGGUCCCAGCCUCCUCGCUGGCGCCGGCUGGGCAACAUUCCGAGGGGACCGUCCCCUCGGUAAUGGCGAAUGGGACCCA

variants of: B1; assay: self-cleavage, relative activity (ratio to wild type); higher = more cleavage; co-transcriptional
Kindly state self-cleavage for each of the entries shown.
Quick one: just the number, no unit, thanks!

Memo: G2C C66G , reported self-cleavage: 0.0978

Memo: G28C U47G , reported self-cleavage: 0.0536

Memo: U69C C85G , reported self-cleavage: 0.988

Memo: C7A C48A , reported self-cleavage: 0.604

Memo: G6C U46A , reported self-cleavage: 0

Memo: C24G G55U , reported self-cleavage: 0.16

Memo: A56G C62U , reported self-cleavage: 0.912

Memo: C13A G55A , reported self-cleavage: 0.222

Memo: C30G A70C , reported self-cleavage: 0.106

Memo: C24G G40C , reported self-cleavage: 0.0222

Memo: U46A A77U , reported self-cleavage: 0.115

Memo: G1C G55A , reported self-cleavage: 0.106

Memo: G29C G55C , reported self-cleavage: 0.0332

Memo: C36A G50A , reported self-cleavage: 0.151

Memo: A16C , reported self-cleavage: 0.838

Memo: G11A C24G , reported self-cleavage: 0.0747

Memo: C26G A43U , reported self-cleavage: 0.584

Memo: C18A G80A , reported self-cleavage: 0.0963

Memo: A78U G82A , reported self-cleavage: 0.109

Memo: A56U G59C , reported self-cleavage: 1.01

Memo: G2A C15A , reported self-cleavage: 0.0382

Memo: C7G C32U , reported self-cleavage: 0.104

Memo: C4G G68A , reported self-cleavage: 0.309

Memo: C7G U12C , reported self-cleavage: 0.111

Memo: G81U A83C , reported self-cleavage: 0.0821

Memo: C4U C61A , reported self-cleavage: 0.978

Memo: G6A A71U , reported self-cleavage: 0.554

Memo: G73U G82C , reported self-cleavage: 0.157

Memo: A45C A56U , reported self-cleavage: 0.629

Memo: G67C A70U , reported self-cleavage: 0.851

Memo: C24U G52A , reported self-cleavage: 0.554

Memo: U46A A51U , reported self-cleavage: 0.536

Memo: C63A G68U , reported self-cleavage: 0.764

Memo: G25C A71U , reported self-cleavage: 0.19

Memo: C44U G82C , reported self-cleavage: 0.0723

Memo: C3G G76C , reported self-cleavage: 0.65

Memo: C15G G80U , reported self-cleavage: 0.73

Memo: G6A C44U , reported self-cleavage: 0.457

Memo: C48U G68A , reported self-cleavage: 0.885

Memo: C21U U79C , reported self-cleavage: 0.0573

Memo: G38A A87G , reported self-cleavage: 0.219

Memo: U23G C85A , reported self-cleavage: 0.787

Memo: G29A A45C , reported self-cleavage: 0

Memo: C24A G35U , reported self-cleavage: 0.298

Memo: G25C A45U , reported self-cleavage: 0.128

Memo: G38U C41A , reported self-cleavage: 0.407

Memo: C22A G40C , reported self-cleavage: 0.0282

Memo: C4G A77G , reported self-cleavage: 0.172

Memo: G10A A70U , reported self-cleavage: 0.533

Memo: U23A G31C , reported self-cleavage: 0.44

Memo: U23G C86G , reported self-cleavage: 0.525

Memo: C21A G52U , reported self-cleavage: 0.107

Memo: G74A C75A , reported self-cleavage: 0.0528

Memo: A43G A51U , reported self-cleavage: 0.646

Memo: A43U C64A , reported self-cleavage: 0.397

Memo: U46G A51C , reported self-cleavage: 0.755

Memo: C15U C49A , reported self-cleavage: 0.623

Memo: A45G G82C , reported self-cleavage: 0.391

Memo: G5C A45G , reported self-cleavage: 0.0875

Memo: G2A G76C , reported self-cleavage: 0.225

Memo: C36A U47G , reported self-cleavage: 0.208

Memo: C7A C85A , reported self-cleavage: 0.453

Memo: C75U A87U , reported self-cleavage: 0.185

Memo: U12A U27G , reported self-cleavage: 0.237

Memo: G54U G68C , reported self-cleavage: 0.496

Memo: C19A G54A , reported self-cleavage: 0.0536

Memo: U20A C33G , reported self-cleavage: 0.151
